compounds and their reported Ki
study_system: STAT5A (Homo sapiens)
Sequence (P42229 whole entry): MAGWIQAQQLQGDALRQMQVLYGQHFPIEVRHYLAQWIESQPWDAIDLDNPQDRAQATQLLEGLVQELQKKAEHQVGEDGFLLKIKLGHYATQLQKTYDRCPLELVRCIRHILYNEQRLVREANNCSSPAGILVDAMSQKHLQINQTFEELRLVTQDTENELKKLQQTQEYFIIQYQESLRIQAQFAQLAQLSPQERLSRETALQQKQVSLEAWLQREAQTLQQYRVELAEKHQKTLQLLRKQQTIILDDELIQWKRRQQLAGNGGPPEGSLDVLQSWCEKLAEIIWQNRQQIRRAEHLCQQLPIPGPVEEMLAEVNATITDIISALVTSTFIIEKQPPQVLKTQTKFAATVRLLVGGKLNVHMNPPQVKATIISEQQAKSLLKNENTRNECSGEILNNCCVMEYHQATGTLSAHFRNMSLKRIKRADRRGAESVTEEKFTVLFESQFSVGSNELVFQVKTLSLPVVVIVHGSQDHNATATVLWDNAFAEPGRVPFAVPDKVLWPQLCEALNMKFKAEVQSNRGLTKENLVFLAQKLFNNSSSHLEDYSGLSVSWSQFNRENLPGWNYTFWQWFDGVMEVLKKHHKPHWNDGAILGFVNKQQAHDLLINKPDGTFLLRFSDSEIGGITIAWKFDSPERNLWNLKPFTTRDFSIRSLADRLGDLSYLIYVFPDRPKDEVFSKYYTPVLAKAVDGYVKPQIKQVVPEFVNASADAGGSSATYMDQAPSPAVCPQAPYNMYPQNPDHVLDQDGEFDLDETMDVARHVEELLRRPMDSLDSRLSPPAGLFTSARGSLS

Q: Consider the compound CC(C)(C)[C@H](NC(=O)c1cc2cc(C(F)(F)P(=O)(O)O)ccc2s1)C(=O)N1C[C@@H](Oc2ccc3ccccc3c2)C[C@H]1C(=O)Nc1ncc(-c2ccccc2)s1 [Compound 209] . State its measured Ki.
Ans: > 10 µM

Q: Consider the compound CC(C)(C)[C@H](NC(=O)c1cc2cc(C(F)(F)P(=O)(O)O)ccc2[nH]1)C(=O)N1CCC[C@H]1C(=O)N[C@@H]1C[C@H]1c1ccccc1 [Compound 16] . State its measured Ki.
Ans: > 10 µM

// next item, Ki requested
Q: Consider the compound CC(C)(C)[C@H](NC(=O)c1cc2cc(C(F)(F)P(=O)(O)O)ccc2s1)C(=O)N1CCC[C@H]1C(=O)N1CCOC(c2cc(F)c(Cl)cc2Cl)C1 (stereo partly drawn) [Compound 104] . State its measured Ki.
Ans: 1 to 10 µM

This collection of values is drawn from patent US20230295200A1.
